- assayedTarget: T1, purified interference factor(s) from serum of Donor B
- T1 construct: text names Donors 8, 19 and 30
- protocolSummary: Biacore, immobilized interference factor
binding vs Reference Sequence (=100%) values by entry
Give the quantity in %, number only.

Below are worked cases with known answers.
binder	reading
SEQ ID NO 88 (VHH, C-terminal: A; L11S, T110Q) VHH: EVQLVESGGGSVQPGGSLRLSCAASRSIGRLDRMGWYRHRPGEPRELVATITGGSSINYGDSVKGRFTISIDNSKNTVYLQMNSLRPEDTAVYYCNFNKYVTSRDTWGQGTLVQVSS	5
SEQ ID NO 68 (VHH, P14A, L108Q) VHH: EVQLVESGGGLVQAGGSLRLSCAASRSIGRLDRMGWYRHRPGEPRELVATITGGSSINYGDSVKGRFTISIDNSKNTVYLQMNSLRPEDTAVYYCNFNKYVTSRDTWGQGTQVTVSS	115
SEQ ID NO 84 (VHH, S112G) VHH: EVQLVESGGGLVQPGGSLRLSCAASRSIGRLDRMGWYRHRPGEPRELVATITGGSSINYGDSVKGRFTISIDNSKNTVYLQMNSLRPEDTAVYYCNFNKYVTSRDTWGQGTLVTVGS	50
SEQ ID NO 75 (VHH, C-terminal: AA) VHH: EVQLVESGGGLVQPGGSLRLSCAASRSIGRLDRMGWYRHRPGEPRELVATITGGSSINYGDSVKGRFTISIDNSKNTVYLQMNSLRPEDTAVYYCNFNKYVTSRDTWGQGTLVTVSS	11
SEQ ID NO 42 (VHH, Nanobody construct; C-terminal: A) EVQLVESGGGLVQPGGSLRLSCAASGRTFSYNPMGWFRQAPGKGRELVAAISRTGGSTYYPDSVEGRFTISRDNAKRMVYLQMNSLRAEDTAVYYCAAAGVRAEDGRVRTLPSEYTFWGQGTQVTVSSAAAEVQLVESGGGLVQPGGSLRLSCAASGRTFSYNPMGWFRQAPGKGRELVAAISRTGGSTYYPDSVEGRFTISRDNAKRMVYLQMNSLRAEDTAVYYCAAAGVRAEDGRVRTLPSEYTFWGQGTQVTVSSA	4

Now let's try a different one.
Q: // returns reported binding vs Reference Sequence (=100%) for input SEQ ID NO 38 (bispecific antibody, Nanobody construct; C-terminal: A) EVQLVESGGGLVQPGGSLRLSCAASGFTFSSYAMSWVRQAPGKGLEWVSGIKSSGDSTRYAGSVKGRFTISRDNAKNTLYLQMNSLRPEDTAVYYCAKSRVSRTGLYTYDNRGQGTLVTVSSGGGGSGGGGSGGGGSGGGGSEVQLVESGGGLVQPGGSLRLSCAASGRTFNNYAMGWFRQAPGKEREFVAAITRSGVRSGVSAIYGDSVKDRFTISRDNAKNTLYLQMNSLRPEDTAVYYCAASAIGSGALRRFEYDYSGQGTLVTVSSA
Ans: 25
